Numbers sourced from the RNAGym collection of RNA variant scans (doi:10.7554/elife.90254).

B1: LINE1-full (parent)
chain: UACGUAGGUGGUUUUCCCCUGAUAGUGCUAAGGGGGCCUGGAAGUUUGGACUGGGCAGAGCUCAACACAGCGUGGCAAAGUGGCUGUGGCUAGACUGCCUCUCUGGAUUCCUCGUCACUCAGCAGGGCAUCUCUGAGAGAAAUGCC

variants of: B1; assay: self-cleavage, relative activity (ratio to wild type); higher = more cleavage; in vitro, sequencing; the parent is a self-cleaving ribozyme
Criterion: self-cleavage meeting or surpassing 1. Met: Met. Not met: Not met.

Identify whether the reported self-cleavage of the following variant is 1 or greater: A57U U87A
Not met

Decide: self-cleavage of U96G >= 1?
Not met

Evaluate U73A C99A : self-cleavage at minimum 1?
Not met

Confirm if self-cleavage reported for the variant A57G C61U is 1 or above.
Not met

For this variant, is measured self-cleavage 1 or higher? G70A U115C
Not met

Threshold query (self-cleavage >= 1) on U62C C99U
Not met

Has U47A C63U a recorded self-cleavage greater than or equal to 1?
Not met

Tell me whether self-cleavage is at least 1 here: A24G G33A
Not met

Quick check: does U46C G144A have self-cleavage greater than or equal to 1?
Met

Assess whether reported self-cleavage for G41A U132C sits at 1 or higher.
Met

For this variant, is measured self-cleavage 1 or higher? A78U U104C
Not met

Decide: is the reported value of self-cleavage for A31G U39C equal to or greater than 1?
Met

I'd appreciate it if you could say whether U13C G70C has self-cleavage at least equal to 1.
Not met

Given the entry G74A U87A , answer whether its self-cleavage meets or surpasses 1.
Not met

Tell me whether self-cleavage is at least 1 here: G139U A140G
Met

Hi team, for C18G U115C , is the recorded self-cleavage at or above 1?
Met

Check the entry U1C U39C : does self-cleavage equal or exceed 1?
Not met

Decide: is the reported value of self-cleavage for G35A U134C equal to or greater than 1?
Not met

Assess whether reported self-cleavage for U39A U130A sits at 1 or higher.
Met

Form field: self-cleavage at least 1? Entry: A79G A142U
Met

Exam item: decide whether the reported self-cleavage for U47C U81A is at least 1.
Met

Check this variant for self-cleavage at or above 1: A69U A107U
Not met

Identify whether the reported self-cleavage of the following variant is 1 or greater: A79G C110A
Met

Reported self-cleavage at or above 1? A30G U73C
Met

Threshold query (self-cleavage >= 1) on A79G A107C
Not met

Hello, I need to know if U9G A136G has measured self-cleavage not below 1. Thanks!
Not met

Does self-cleavage meet or surpass 1 for U12G C90U ?
Not met

Please check the record A92G U119C and state if its self-cleavage is at or above 1.
Not met

For this variant, is measured self-cleavage 1 or higher? A92G U143A
Not met

Does U47A U81C have a reported self-cleavage of at least 1?
Met

Decide: is the reported value of self-cleavage for U9A A129C equal to or greater than 1?
Met

Evaluate U85C A117C : self-cleavage at minimum 1?
Not met

Please check the record U23A A142G and state if its self-cleavage is at or above 1.
Met

Exam item: decide whether the reported self-cleavage for C37U C56U is at least 1.
Not met

hey, is self-cleavage for this one >= 1? U9C U47A
Met

Assess whether reported self-cleavage for U9C U20G sits at 1 or higher.
Met

// inclusive: self-cleavage at least 1? input: A59G U134A
Not met

Identify whether the reported self-cleavage of the following variant is 1 or greater: U13C A42U
Not met

# bool: self-cleavage of A22G C66U >= 1
Not met

Threshold query (self-cleavage >= 1) on U13A U104C
Met

Textbook exercise: given the entry G36A U85A , state whether its self-cleavage is greater than or equal to 1.
Not met

Quick check: does U13G A141G have self-cleavage greater than or equal to 1?
Not met

For this variant, is measured self-cleavage 1 or higher? G32A A94G
Not met

Decide: is the reported value of self-cleavage for G86A A141U equal to or greater than 1?
Not met

Test whether the variant G75C A77U records self-cleavage of 1 or higher.
Not met

hey, is self-cleavage for this one >= 1? U130C A138G
Met

Does the variant U26G G105A have recorded self-cleavage that is 1 or more?
Met

Does the reported self-cleavage for G48U U134C fall at or above the 1 mark?
Met

Please tell me: is the variant U20G G41U at or over 1 in terms of self-cleavage?
Not met

Decide: self-cleavage of A42U U91C >= 1?
Not met

Exam item: decide whether the reported self-cleavage for G32A U47A is at least 1.
Met

Can U91C U108C be said to have self-cleavage at or above 1?
Not met

Please tell me: is the variant C37G A59U at or over 1 in terms of self-cleavage?
Not met

I'd appreciate it if you could say whether U12G G54A has self-cleavage at least equal to 1.
Not met

Would you say U39A U91C shows self-cleavage at minimum 1?
Not met

Exam item: decide whether the reported self-cleavage for U46C G49A is at least 1.
Met

Evaluate A30G U85C : self-cleavage at minimum 1?
Not met

// inclusive: self-cleavage at least 1? input: U23C G34U
Met

self-cleavage >= 1 for A77C U143C ?
Met

Identify whether the reported self-cleavage of the following variant is 1 or greater: G55A C110U
Not met

Please tell me: is the variant U45G A57G at or over 1 in terms of self-cleavage?
Not met

Dear colleague, could you confirm whether A22U A138C has self-cleavage at or above 1?
Not met

Record U5C A42G ; criterion: self-cleavage no lower than 1. Met?
Not met

Threshold query (self-cleavage >= 1) on A6G A78G
Met

Textbook exercise: given the entry U112C A141U , state whether its self-cleavage is greater than or equal to 1.
Met

Check if self-cleavage >= 1 (inclusive). Item: U87A A124U
Not met

Quick check: does U46C G72A have self-cleavage greater than or equal to 1?
Not met

Is the recorded value of self-cleavage equal to or greater than 1 for this variant? U109C A136G
Met

Tell me whether self-cleavage is at least 1 here: A42G U91C
Not met

# check: self-cleavage of U112C U130C is greater than or equal to 1
Met

Check the entry C17G U91C : does self-cleavage equal or exceed 1?
Not met

Does the variant U12A A92G have recorded self-cleavage that is 1 or more?
Not met

For this variant, is measured self-cleavage 1 or higher? U102C C128U
Met

Could you please find out whether U47A C68U has self-cleavage that meets 1 or exceeds it?
Not met

Is it the case that G58A U115A has self-cleavage reaching or exceeding 1?
Not met

I'd appreciate it if you could say whether A42U A92G has self-cleavage at least equal to 1.
Not met

Please tell me: is the variant A42U A59G at or over 1 in terms of self-cleavage?
Not met

Is the recorded value of self-cleavage equal to or greater than 1 for this variant? C56U A78G
Not met

Say whether U45G A140G shows self-cleavage of 1 or more.
Met

# check: self-cleavage of A30G U46C is greater than or equal to 1
Met

Quick check, self-cleavage >= 1? G34U U104A
Met

Confirm if self-cleavage reported for the variant U12C G72A is 1 or above.
Met

Form field: self-cleavage at least 1? Entry: U29C C68U
Not met

Is it the case that G11C U109C has self-cleavage reaching or exceeding 1?
Met

Item G32C U108C with self-cleavage of 1 or above?
Met

Check if self-cleavage >= 1 (inclusive). Item: C95G
Not met

Does G41U C103A have a reported self-cleavage of at least 1?
Met

I'd appreciate it if you could say whether U1A U102A has self-cleavage at least equal to 1.
Not met

Does the reported self-cleavage for A64U G137A fall at or above the 1 mark?
Not met
